Target: Microphthalmia-associated transcription factor (Homo sapiens)
Sequence (O75030 whole entry): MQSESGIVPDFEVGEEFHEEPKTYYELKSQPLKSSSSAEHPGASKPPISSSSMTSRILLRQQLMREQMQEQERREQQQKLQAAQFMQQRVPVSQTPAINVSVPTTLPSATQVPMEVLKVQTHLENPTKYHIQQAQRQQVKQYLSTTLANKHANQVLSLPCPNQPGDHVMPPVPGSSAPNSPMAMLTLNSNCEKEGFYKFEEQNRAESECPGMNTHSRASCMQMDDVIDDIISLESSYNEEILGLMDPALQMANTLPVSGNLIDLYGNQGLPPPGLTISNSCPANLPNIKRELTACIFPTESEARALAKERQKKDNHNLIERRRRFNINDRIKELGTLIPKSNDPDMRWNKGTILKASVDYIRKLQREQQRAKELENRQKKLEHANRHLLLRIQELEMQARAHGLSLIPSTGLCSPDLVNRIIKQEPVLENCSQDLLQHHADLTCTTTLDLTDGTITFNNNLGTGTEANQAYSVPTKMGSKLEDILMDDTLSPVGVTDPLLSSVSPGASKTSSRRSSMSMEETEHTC
Assay: TRPM1 promoter luciferase signal decrease, dose response, MITF inhibitor project, cell-based, SK-MEL-5, cherry-picked, set 3 (AID 493073)
Type: functional
The source made the active and inactive calls. No rule for the calls is given here.
Each entry below lists one item and its recorded AC50 value.

• COc1cc(NC(=O)c2ccc([N+](=O)[O-])o2)ccc1NC(=O)c1cccs1 = 8.46 µM (active)
• O=C1NC(=S)NC(=O)C1=Cc1cccn1-c1ccc(O)cc1 = 11.4 µM (active)
• O=C1NC(=O)N(Cc2ccc(F)cc2)C(=O)/C1=C\C=C\c1ccco1 = 6.63 µM (active)
• O=C(CCl)N(Cc1cc(O)nc2ccccc12)c1ccccc1 = 5.42 µM (active)
• O=C(O)c1ccc(N/N=C/c2ccc3nccnc3c2)cc1 = 0.696 µM (active)

Qu. Hello, I am looking for reported AC50 with Microphthalmia-associated transcription factor (Homo sapiens) for Cc1c(CCOC(=O)c2ccc(Cl)cc2Cl)sc[n+]1CC(=O)c1ccc(Br)cc1 . Could you help?
Ans. 19.8 µM (active)

Qu. Hello, I am looking for reported AC50 with Microphthalmia-associated transcription factor (Homo sapiens) for Oc1cc(NCCN2CCOCC2)cc2cccnc12 . Could you help?
Ans. 25.9 µM (active)

Qu. Hello, I am looking for reported AC50 with Microphthalmia-associated transcription factor (Homo sapiens) for O=C(Nc1ccc(F)cc1)c1nc(S(=O)(=O)Cc2ccccc2)ncc1Cl . Could you help?
Ans. 9.45 µM (active)
